- System: NCI-H226 lung
- Assay summary: NCI tumour cell line growth inhibition, 48 h
Quantity: TGI

Some compounds with known TGI results, for comparison:
CC(=O)c1cccc(NC(=O)/C(=N\NC(=S)NN)C2C(=O)Nc3ccccc3S2=O)c1 (stereo not drawn)
> 100 µM
COc1ccc([Se]c2ccc(OC)cc2)cc1
93.5 µM

Okay, next one:
Item `COc1ccc(-c2cc3c(N)ncnc3o2)cc1` has what recorded TGI? > 25 µM

---

- System: SK-MEL-2 melanoma
- Assay summary: NCI tumour cell line growth inhibition, 48 h
# maps each entry to its TGI
I only need the number, in µM, no unit after it.

COC(=O)C(Cc1ccccc1)N=Cc1c(O)c(O)c(C(C)C)c2cc(C)c(-c3c(C)cc4c(C(C)C)c(O)c(O)c(C=NC(Cc5ccccc5)C(=O)OC)c4c3O)c(O)c12 (stereo unspecified)
44
CCN(CC)c1ccc(N=C2C=CC(=C(C#N)C#N)c3ccccc32)c(C)c1
5.48
O=C(N1CCN(c2ccccc2)CC1)N(C(=O)C1(c2ccc(Cl)cc2)CCCC1)S(=O)(=O)c1ccccc1
38.9
COC(=O)[C@]1(C)CC[C@]2(C)CC[C@]3(C)C(=CC(=O)[C@@H]4[C@@]5(C)CCC(=O)NC(C)(C)[C@@H]5CC[C@]43C)[C@@H]2C1
95.3

Okay, next one:
Item `NC(N)=N/N=C/c1c(-c2ccc(Cl)cc2)nc2n1CCS2` has what recorded TGI? 24.2

---

- System: HCT-15 colon
- Assay summary: NCI tumour cell line growth inhibition, 48 h; in the data active = GI50 below about 0.43 µM; inactive = the rest
Use one of these outcomes when replying: active, inactive

Use the examples below as a reference point.
COc1cc(OC)c2c(c1Cl)O[C@]1(C2=O)C(OCc2ccccc2)=CC(=O)C[C@H]1C
inactive
COc1ccc(-c2cc3c(N)ncnc3o2)cc1
inactive
CC1CC2(C)CC(=O)C1C1C(=O)N(CCN3CCOCC3)C(=O)C12 (configuration not stated)
inactive
CNCC1CCn2c(c(C3=C(c4cn(C)c5ccccc45)C(=O)NC3=O)c3ccccc32)C1 (configuration not stated)
inactive
COc1cc2c3c(n(CCCN4CCN(CCO)CC4)c(=O)c2cc1OC)-c1cc2c(cc1C3=O)OCO2
inactive
O=S1(=O)C=C(c2ccccc2)C(c2ccccc2)=C1
inactive

Field: outcome | Entry: `COc1cc[nH]c1/C=C1\C(=O)Nc2ccc([N+](=O)[O-])c(N3CC[C@@H](O)C3)c21` active

---

# maps each entry to its TGI
- System: NCI-H226 lung
- Assay summary: NCI tumour cell line growth inhibition, 48 h

Some compounds with known TGI results, for comparison:
CC1(C)N=C(N)N=C(N)N1CCCCc1ccccc1
> 83 µM
CSc1nc(Cl)c2c(n1)Sc1nc3ccccc3n1N=C2
> 100 µM
Cc1cccc(/C=C2\CCCCCC2=O)c1
> 100 µM
CCOC(=O)/C=C1\C[C@H](NC(=O)OCc2ccccc2)C(=O)N1CC(=O)OCC
> 100 µM
Cc1ccc2nnc(NS(=O)(=O)c3cc(C)c(Cl)cc3S)n2n1
> 100 µM
S=c1sscc1N1CCSc2ssc(=S)c21
> 100 µM
COn1cc(C(=O)N=C(SC)SC)c2ccccc21
51.2 µM
Cc1cn(C2CC(O)C(Cn3nncc3Cn3ccc(=O)[nH]c3=O)O2)c(=O)[nH]c1=O (configuration not stated)
> 100 µM

Item O=C1CC2OCC=C3CN4CCC56c7ccccc7N1C5C2C3CC46 (configuration not stated) (tested in a mixture with another compound) has what recorded TGI? > 50 µg/mL

Item `NC(=O)N=Nc1c2ccccc2n2[nH]ccc12` has what recorded TGI? > 100 µM

Item `COc1ccc(-c2c(C#N)cnc(N)c2-c2nc3cc(C)c(C)cc3[nH]2)cc1` has what recorded TGI? > 100 µM

Item `CCOC(=O)c1c[nH]c2cc3c(cc2c1=O)CCS3` has what recorded TGI? > 100 µM
